# target-desc: purified LasB protein from P. aeruginosa (Pseudomonas aeruginosa)
# Construct: purchased Merck or Charles River Laboratories
# Sequence (P14756 198-498): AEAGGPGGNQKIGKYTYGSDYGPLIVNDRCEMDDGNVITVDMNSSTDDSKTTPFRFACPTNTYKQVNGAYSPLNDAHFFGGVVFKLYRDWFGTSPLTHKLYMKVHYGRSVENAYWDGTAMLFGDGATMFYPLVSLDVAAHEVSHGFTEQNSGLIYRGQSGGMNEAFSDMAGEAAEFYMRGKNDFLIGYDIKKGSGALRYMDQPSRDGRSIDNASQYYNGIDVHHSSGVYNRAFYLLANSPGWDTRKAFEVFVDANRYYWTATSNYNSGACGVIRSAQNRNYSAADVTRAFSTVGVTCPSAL
# protocol-description: Fluorometric assay to determine Ki (Assay 1)
# Assay type: biochemical
# details: Ki (μM) Assay 1, purified LasB, substrate Abz-Ala-Gly-Leu-Ala-p-Nitro-Benzyl-Amide 250 μM, Ki calculated from IC50; inhibitor 0.006 to 200 μM
recorded-endpoint: Ki

Known results for compounds:
>  <structure-smiles-string>
C[N+](C)(C)C[C@H]1C[C@@H](c2ccc3nc(CNC(=O)C4(CC(=O)[O-])Cc5ccccc5C4)sc3c2)C1

>  <result>
< 0.3 µM

$$$$
>  <structure-smiles-string>
O=C(O)CC1(C(=O)NCc2nc3ccccc3[nH]2)Cc2ccccc2C1

>  <result>
2 to 10 µM

$$$$
>  <structure-smiles-string>
C[N+]1(C)CCN(c2ccc3nc(CNC(=O)C4(CC(=O)O)Cc5ccccc5C4)sc3c2)CC1

>  <result>
0.3 to 2 µM

$$$$
>  <structure-smiles-string>
O=C(O)CC1(C(=O)NCc2ccccc2)Cc2ccccc2C1

>  <result>
2 to 10 µM

$$$$

Ask: Tell me the measured Ki of `NC1CN(c2ccc3nc(CNC(=O)C4(CC(=O)O)Cc5ccccc5C4)sc3c2)C1` , please.
Result: < 0.3 µM

Ask: Okay, and `NC(=O)[C@H](Cc1ccc(O)cc1)NC(=O)C1(CC(=O)O)Cc2ccccc2C1` ?
Result: 2 to 10 µM

Ask: Okay, and `O=C(O)CC1(C(=O)N[C@@H](Cc2ccc(O)cc2)C(=O)O)Cc2ccccc2C1` ?
Result: 0.3 to 2 µM

Ask: Okay, and `CN1CCC(OC(=O)[C@H](Cc2c[nH]c3ccccc23)NC(=O)C2(CC(=O)O)Cc3ccccc3C2)CC1` ?
Result: < 0.3 µM
